B1: POU domain, class 5, transcription factor 1, residues 134 to 212; numbered along this chain, Q01860 (parent)
chain: EESQDIKALQKELEQFAKLLKQKRITLGYTQADVGLTLGVLFGKVFSQTTICRFEALQLSFKNMCKLRPLLQKWVEEAD

Variants of: B1
Assay: abundance fitness (aPCA) (normalised: wild type 0, dead -1); higher = more abundant; growth selection in yeast, the domain comes from the species named
Conditions: Homo sapiens
Cut-off -0.3 on abundance fitness, inclusive. At or above means Fulfilled; below means Not fulfilled.

- Variant: "A78T"
  Group Label: "Fulfilled"
- Variant: "T37E"
  Group Label: "Fulfilled"
- Variant: "F54A"
  Group Label: "Not fulfilled"
- Variant: "E12F"
  Group Label: "Fulfilled"
- Variant: "Q72L"
  Group Label: "Not fulfilled"
- Variant: "F42T"
  Group Label: "Fulfilled"
- Variant: "T49V"
  Group Label: "Fulfilled"
- Variant: "W74G"
  Group Label: "Fulfilled"
- Variant: "K73W"
  Group Label: "Not fulfilled"
- Variant: "E77Q"
  Group Label: "Fulfilled"
- Variant: "R53S"
  Group Label: "Not fulfilled"
- Variant: "Q4I"
  Group Label: "Not fulfilled"
- Variant: "L13Y"
  Group Label: "Not fulfilled"
- Variant: "L57Y"
  Group Label: "Fulfilled"
- Variant: "Q31Y"
  Group Label: "Fulfilled"
- Variant: "T49F"
  Group Label: "Not fulfilled"
- Variant: "I6C"
  Group Label: "Not fulfilled"
- Variant: "C65I"
  Group Label: "Fulfilled"
- Variant: "Q10G"
  Group Label: "Fulfilled"
- Variant: "F42R"
  Group Label: "Not fulfilled"
- Variant: "L38M"
  Group Label: "Fulfilled"
- Variant: "F46V"
  Group Label: "Fulfilled"
- Variant: "V40C"
  Group Label: "Fulfilled"
- Variant: "D5G"
  Group Label: "Not fulfilled"
- Variant: "L19A"
  Group Label: "Not fulfilled"
- Variant: "Q58D"
  Group Label: "Fulfilled"
- Variant: "D33Q"
  Group Label: "Fulfilled"
- Variant: "V34R"
  Group Label: "Not fulfilled"
- Variant: "L20S"
  Group Label: "Not fulfilled"
- Variant: "L13G"
  Group Label: "Not fulfilled"
- Variant: "C65Q"
  Group Label: "Fulfilled"
- Variant: "E55V"
  Group Label: "Not fulfilled"
- Variant: "D5V"
  Group Label: "Fulfilled"
- Variant: "Q48K"
  Group Label: "Fulfilled"
- Variant: "F42P"
  Group Label: "Not fulfilled"
- Variant: "K7G"
  Group Label: "Fulfilled"
- Variant: "K11D"
  Group Label: "Fulfilled"
- Variant: "K73M"
  Group Label: "Not fulfilled"
- Variant: "L41A"
  Group Label: "Not fulfilled"
- Variant: "Q72I"
  Group Label: "Fulfilled"
- Variant: "K7V"
  Group Label: "Fulfilled"
- Variant: "V40N"
  Group Label: "Fulfilled"
- Variant: "F61K"
  Group Label: "Fulfilled"
- Variant: "L20V"
  Group Label: "Fulfilled"
- Variant: "D79G"
  Group Label: "Not fulfilled"
- Variant: "L41T"
  Group Label: "Fulfilled"
- Variant: "L59N"
  Group Label: "Fulfilled"
- Variant: "I51T"
  Group Label: "Not fulfilled"
- Variant: "E12Y"
  Group Label: "Not fulfilled"
- Variant: "E1R"
  Group Label: "Fulfilled"
- Variant: "L59R"
  Group Label: "Not fulfilled"
- Variant: "K44H"
  Group Label: "Fulfilled"
- Variant: "C65A"
  Group Label: "Not fulfilled"
- Variant: "C65N"
  Group Label: "Not fulfilled"
- Variant: "E76D"
  Group Label: "Fulfilled"
- Variant: "L70R"
  Group Label: "Not fulfilled"
- Variant: "G28A"
  Group Label: "Not fulfilled"
- Variant: "L71Y"
  Group Label: "Not fulfilled"
- Variant: "L36T"
  Group Label: "Fulfilled"
- Variant: "R68L"
  Group Label: "Fulfilled"
- Variant: "T50M"
  Group Label: "Fulfilled"
- Variant: "L41G"
  Group Label: "Not fulfilled"
